- Tested on: NCI-H322M lung
- experimentalProtocol: NCI-60 one-dose screen, 48 h (100 = growth as untreated, 0 = no growth, -100 = all killed)
- conditionSet: 10 µM unless noted
This is part of a sample that, as a whole, favours compounds with a hit. Of some 83,000 tested, about 20% had one in any assay. Activity calls are given as the source filed them. Rule for the calls: active = growth percent below 10; inactive = the rest.
Below, each entry is listed alongside its reported growth.

Solved entries:
COc1cc(-c2nc(SCC(=O)Nc3ccc(C(C)=O)cc3)[nH]c(=O)c2C#N)cc(OC)c1OC: 45.3% (inactive)
O=C(Nc1cccc(-n2ccc3c(NC(=O)c4ccccc4)nccc32)c1)c1cc(N2CCOCC2)cc(C(F)(F)F)c1: 30.8% (inactive)

Enquiry: Which growth is reported for this compound? O=C(Nc1ccccc1Cl)c1c[nH]c(=O)c(-c2ccc(N3CCCOC4(CC4)C3)cc2)c1
Return: 78% (inactive)

Enquiry: Then COC(=O)c1ccc2c(c1)Oc1ccc(Cl)cc1-c1cc(C)nn1-2 ?
Return: 81.9% (inactive)

Enquiry: Then Nn1c(CN2CCN(c3cc4c(cc3F)c(=O)c(C(=O)O)cn4C3CC3)CC2)n[nH]c1=S ?
Return: 93.3% (inactive)

Enquiry: Then COc1ccc(OC)c(NCC(=O)n2nc(/C=C\c3ccc(O)c(OC)c3)cc2/C=C\c2ccc(O)c(OC)c2)c1 ?
Return: 29.5% (inactive)

* * *

- Tested on: SF-295 CNS
- experimentalProtocol: NCI-60 one-dose screen, 48 h
- conditionSet: 10 µM unless noted
The panel holds about 83,000 compounds, 20% with a hit somewhere; the sample as a whole holds those more often. The source made the active and inactive calls. Rule for the calls: active = growth percent below 10; inactive = the rest.
// one of TRUE (active), FALSE (inactive), no free text

Recorded results for 2 molecules are shown here.
CCC1S/C(=N\N=C(/C)c2cccs2)N(c2ccccc2)C1=O (stereo unspecified): FALSE
COc1ccc(-c2cc(-c3nnc(SC/C(=N\O)c4ccccc4)n3-c3ccccc3)c3ccccc3n2)cc1: FALSE

Enquiry: In this assay, the call recorded for COc1cc(-c2nc(N)n(CC(=O)Nc3ccc(/C(C)=N\O)cc3)n2)cc(OC)c1OC was what?
Return: FALSE

Enquiry: Then COc1ccc2c(-c3ccc(F)cc3)c(C#N)c(=NC(C)=O)oc2c1 ?
Return: FALSE

Enquiry: Then CC(=O)c1ccc2c(c1)C1C=CCC1[C@H](c1cc3c(cc1Br)OCO3)N2 (stereo partly specified) ?
Return: TRUE

Enquiry: Then C=CCn1c(SCC(=O)Nc2ccc(C(=O)/C=C/c3cc(OC)c(OC)c(OC)c3)cc2)nnc1-c1ccc(OC)cc1 ?
Return: TRUE

Enquiry: Then O=C(Nc1ccc(-n2cc(-c3ccncc3)c(-c3ccc(O)c(Cl)c3)n2)cc1)c1cc(Cl)cc(Cl)c1 ?
Return: TRUE

* * *

- System: ACHN renal
- experimentalProtocol: NCI-60 one-dose screen, 48 h
- conditionSet: 10 µM unless noted
About 83,000 compounds went through this panel and 20% of them were active in at least one assay; those are over-represented in the sample as a whole. Active and inactive are the calls of the source. How the source made its calls: active means growth percent below 10; inactive means the rest.
// one of true (1) (active), false (0) (inactive), no free text

O=C(CNc1cccnc1)Nc1ccc(C(=O)/C=C/c2ccc(Cl)cc2)cc1: false (0)
O=C1COc2ccccc2C(=O)N1CCCCN1CCCCC1: false (0)
O=C(Nc1ccc(-n2cc(-c3ccncc3)c(-c3ccc(O)c(Cl)c3)n2)cc1)c1cc(C(F)(F)F)cc(C(F)(F)F)c1: false (0)
COc1ccc(C(=O)NC(=O)Nc2ccc3c(c2)NC(=O)/C3=C\c2[nH]c(C)c(C(=O)O)c2C)c(F)c1: false (0)
O=S(=O)(CCN1CCOCC1)Nc1cc(-c2ccc3ncnc(Nc4ccc(F)c(Cl)c4)c3c2)cnc1Cl: true (1)
COc1ccc(-c2cc3ccc(N(C)C)cc3nc2N)c(F)c1: false (0)
OCCOCC(F)(F)F: false (0)
S=c1[nH]nc(Cn2c3ccccc3c3ccncc32)o1: false (0)

Enquiry: In this assay, the call recorded for Nc1ncnc2c1ccn2-c1cccc(NC(=O)c2cccc(C(F)(F)F)c2)c1 was what?
Return: false (0)

Enquiry: Then CC1(C)N=C(N)N=C(N)N1c1ccc(OCC(=O)Nc2ccccc2)c(Cl)c1 ?
Return: false (0)

Enquiry: Then O=C(Nc1ccc(-n2ccc3c(NC(=O)c4ccccc4)ncnc32)cc1)Nc1ccc(Cl)c(Cl)c1 ?
Return: false (0)

Enquiry: Then c1coc(CSc2ncnc3nc[nH]c23)c1 ?
Return: false (0)

Enquiry: Then CCCCCCCC(=O)SCC/C=C/[C@@H]1CC(=O)NCc2nc(cs2)C2=N[C@@](C)(CS2)C(=O)N[C@@H](C(C)C)C(=O)N1 ?
Return: true (1)

Data provenance is PubChem BioAssay (NCI).
